B1: POU domain, class 6, transcription factor 2, residues 609 to 663; numbered along this chain, P78424 (parent)
chain: KRRTSFTPQALEILNAHFEKNTHPSGQEMTEIAEKLNYDREVVRVWFCNKRQALK

Variants of: B1
Assay: abundance fitness (aPCA) (normalised: wild type 0, dead -1); higher = more abundant; growth selection in yeast, the domain comes from the species named
Stated conditions: Homo sapiens
Test readout: abundance fitness

R40C    -0.064
T4Q    -0.203
N49P    -0.683
F18M    -0.76
V42T    0.002
L11R    -0.222
R51W    -0.295
Q9D    -0.12
S25W    -0.92
H17V    -0.031
P8I    -0.189
T30R    -0.119
K50M    -0.184
E31K    -0.31
T30M    0.102
I13F    -0.113
I32F    -0.649
R51C    -0.316
L36R    -0.967
P8C    -0.023
Q52M    -0.188
L14H    -0.788
E31V    -0.174
A10C    -0.154
L14F    -0.877
L14P    -0.852
P24N    -0.96
N49A    -0.038
L11A    -0.279
N15R    -0.217
E31G    -0.041
L11V    0.053
V45L    0.02
V43R    -0.935
F47Y    -0.162
I13M    -0.218
E19C    -0.085
R44F    -0.117
A53E    -0.105
N49R    -0.157
G26P    -0.004
Y38W    -0.071

These measurements were taken from the Human Domainome abundance scans (Beltran et al. 2025).
